- tested.target: acetylcholine receptor
- test: SPR, AchR immobilised on chip, peptide at 10 uM
For each record, write down the corresponding Binding affinity (RU).
Express it in RU; write the number only.

Quick one: Binding affinity (RU) of KGLCR [5mer-589] ?
58

Quick one: Binding affinity (RU) of RSLRK [5mer-297] ?
81

Quick one: Binding affinity (RU) of KQRTR [5mer-255] ?
82

Quick one: Binding affinity (RU) of KGQLK [5mer-285] ?
75
